Cited source: PubChem BioAssay (NCI)

Test system: TK-10 renal
Experiment: NCI-60 one-dose screen, 48 h (100 = growth as untreated, 0 = no growth, -100 = all killed)
Settings: 10 µM unless noted
This is part of a sample that, as a whole, favours compounds with a hit. Of some 83,000 tested, about 20% had one in any assay.
Binary call on growth with cut-off 80%: strictly below means 1, and equality or higher means 0.

Look over these answered cases.
[[record]]
compound = "CCOC(=S)S[C@H]1C[C@@H]2[C@H](CC[C@]3(C)C(=O)CC[C@@H]23)[C@@]2(C)CCC(=O)C=C12"
assigned_category = 0

[[record]]
compound = "CC(=O)[C@H]1CC[C@H]2[C@@H]3CC[C@H]4C[C@H](N)CC[C@]4(C)[C@H]3CC[C@]12C"
assigned_category = 0

[[record]]
compound = "CC(=O)O[C@H](C[C@H](C(C)C)N(C)C(=O)[C@@H](NC(=O)[C@H]1CCCCN1C)C(C)C)c1nc(C(=O)NC2CCC(C(=O)O)CC2)cs1 (stereo partly drawn)"
assigned_category = 1

[[record]]
compound = "CC12CCC=CC1CCC1C2CCC2(C)C(c3ccc(=O)oc3)CCC12O (stereo not drawn)"
assigned_category = 1

[[record]]
compound = "Cc1cnc(/C=C/C(=O)O)cc1-c1cc2c(cc1C)C(C)(C)CCC2(C)C"
assigned_category = 0

[[record]]
compound = "Nc1nnnc2nc[nH]c12"
assigned_category = 1

[[record]]
compound = "O=C1C(N2CC2)=C(N2CC2)C(=O)C(N2CC2)=C1N1CC1"
assigned_category = 1

[[record]]
compound = "CC[C@]12C=CCN3CC[C@]4(C(=C(C(=O)OC)C1)Nc1cc(OC)c(OC(C)=O)cc14)[C@@H]32"
assigned_category = 1


is_below(growth, 80%) for "COC(=O)[C@]12CCC(C)(C)C[C@H]1[C@H]1C(=O)C[C@@H]3[C@@]4(C)C[C@@]5(CC(C)(C)[C@@H]4CC[C@@]3(C)[C@]1(C)CC2)OO[C@@](C)(C(F)(F)F)O5" ?
0

Thanks! And "COC(=O)[C@@]1(C)CC[C@]2(C)CC[C@]3(C)C4=CC(=O)c5c(cc(O)c(O)c5C)[C@]4(C)CC[C@@]3(C)[C@@H]2C1" ?
1

Thanks! And "O=P(Oc1ccc(Cl)cc1)(N1CC1)N1CC1" ?
0

Thanks! And "COc1cc([C@@H]2c3cc4c(cc3[C@H](OC(C)=O)[C@H]3COC(=O)[C@@H]23)OCO4)cc(OC)c1OC" ?
1

Thanks! And "COc1cc2c(c(OC)c1OC)-c1ccc([O-])c(=O)cc1[C@@H](NC(C)=O)CC2.COc1cc2c(c(OC)c1OC)-c1ccc([O-])c(=O)cc1[C@@H](NC(C)=O)CC2.[Cu+2]" ?
1

Thanks! And "Cc1c2cc(Cl)c3ccccc3c2c[n+]2ccccc12" ?
0

Thanks! And CN1C(=O)C23CC4(C56CC78SSC(CO)(C(=O)N7C5Nc5ccccc56)N(C)C8=O)c5ccccc5NC4N2C(=O)C1(CO)SS3 (stereo not drawn) ?
1

Thanks! And "O=P(N1CC1)(N1CC1)N1CCc2ccccc21" ?
0

Thanks! And "COC(=O)C12CC(NC(=O)c3csc([C@@H](C[C@H](C(C)C)N(C)C(=O)[C@@H](NC(=O)[C@H]4CCCCN4C)C(C)C)OC(C)=O)n3)(C1)C2" ?
1

Thanks! And "CC(=O)Nc1nc2c(s1)CC[C@@]1(C)C2=CC[C@H]2[C@@H]3CC[C@H](O)[C@@]3(C)CC[C@@H]21" ?
0
